# experimentalSystem: human 20S proteasome C-L site (Homo sapiens, UniProt P28072+Q99436)
# protocolSummary: Proteasome inhibition assay, caspase-like site, fluorogenic substrate
# Assay type: biochemical
Below, each of the molecules is paired with its reported pIC50 value.
When answering, recall that pIC50 equals minus log10 of the concentration in mol/L, and write that number alone.

Quickly give me recorded pIC50 for CCCCCC(=O)N[C@H](C(=O)N[C@@H](CCC(=O)N[C@@H](CC(C)C)C(=O)[C@@]1(C)CO1)C(=O)N[C@@H](CC(C)C)C(=O)[C@@]1(C)CO1)C(C)C 6.82

We next turn to a different molecule, shown below.
Quickly give me recorded pIC50 for CCCCCC(=O)N[C@H](C(=O)N[C@@H](CCS(=O)(=O)c1ccc(N)cc1)C(=O)N[C@@H](CC(C)C)C(=O)[C@@]1(C)CO1)C(C)C 6.27

----------
# experimentalSystem: human 20S proteasome ChT-L site (Homo sapiens, UniProt P20618+P28074)
# protocolSummary: Proteasome inhibition assay, chymotrypsin-like site, fluorogenic substrate
Below, each of the molecules is paired with its reported pIC50 value.
When answering, recall that pIC50 equals minus log10 of the concentration in mol/L, and write that number alone.

Quickly give me recorded pIC50 for CCCCCC(=O)N[C@H](C(=O)N[C@@H](CCC(=O)N[C@@H](CC(C)C)C(=O)[C@@]1(C)CO1)C(=O)N[C@@H](CC(C)C)C(=O)[C@@]1(C)CO1)C(C)C 8.72

Quickly give me recorded pIC50 for CCCCCC(=O)N[C@H](C(=O)N[C@@H](CCS(=O)(=O)CCNC(=O)OC(C)(C)C)C(=O)N[C@@H](CC(C)C)C(=O)[C@@]1(C)CO1)C(C)C 7.85

Quickly give me recorded pIC50 for CC(C)C[C@H](NC(=O)CC[C@H](NC(=O)[C@@H](NC(=O)Cc1ccc(N)cc1)C(C)C)C(=O)N[C@@H](CC(C)C)C(=O)[C@@]1(C)CO1)C(=O)[C@@]1(C)CO1 7.05

Quickly give me recorded pIC50 for CCCCCC(=O)N[C@@H](Cc1ccc(N)cc1)C(=O)N[C@@H](CCC(=O)N[C@@H](CC(C)C)C(=O)[C@@]1(C)CO1)C(=O)N[C@@H](CC(C)C)C(=O)[C@@]1(C)CO1 8.25

Quickly give me recorded pIC50 for CCCCCC(=O)N[C@H](C(=O)N[C@@H](CCS(=O)(=O)c1ccc(N)cc1)C(=O)N[C@@H](CC(C)C)C(=O)[C@@]1(C)CO1)C(C)C 8.82

We next turn to a different molecule, shown below.
Quickly give me recorded pIC50 for CCCCCC(=O)N[C@H](C(=O)N[C@@H](CCS(=O)(=O)CCN)C(=O)N[C@@H](CC(C)C)C(=O)[C@@]1(C)CO1)C(C)C 7.37

----------
# experimentalSystem: human 20S proteasome C-L site (Homo sapiens, UniProt P28072+Q99436)
# protocolSummary: Proteasome inhibition assay, caspase-like site, fluorogenic substrate
pIC50: −log10 of the molar value.
Below, each of the molecules is paired with its reported pIC50 value.

Below, each entry is followed by its recorded pIC50 result.
Quickly give me recorded pIC50 for CCCCCC(=O)N[C@@H](Cc1ccc(N)cc1)C(=O)N[C@@H](CCC(=O)N[C@@H](CC(C)C)C(=O)[C@@]1(C)CO1)C(=O)N[C@@H](CC(C)C)C(=O)[C@@]1(C)CO1 [Analogue 15] < 6.00

Quickly give me recorded pIC50 for CCCCCC(=O)N[C@H](C(=O)N[C@@H](CCC(=O)N[C@@H](CC(C)C)C(=O)[C@@]1(C)CO1)C(=O)NC(CCS(=O)(=O)c1ccc(N)cc1)C(=O)OC)C(C)C (stereo partly drawn) [Analogue 17] < 6.00

Continuing:
Quickly give me recorded pIC50 for CC(C)C[C@H](NC(=O)CC[C@H](NC(=O)[C@@H](NC(=O)Cc1ccc(N)cc1)C(C)C)C(=O)N[C@@H](CC(C)C)C(=O)[C@@]1(C)CO1)C(=O)[C@@]1(C)CO1 [Analogue 16] < 6.00
